- TARGET ENTITY: gelatinase A catalytic domain (MMP02)
- ASSAY DETAILS: Thiopeptolide assay, gelatinase A catalytic domain (GCD, MMP02)
- Assay type: biochemical
- MEASUREMENT SETUP: Tables 2, 3, 5, 7; read-out: IC50 MMP-2CD
MEASURED ATTRIBUTE: IC50 (nM)
Note: unit nM is implicit; provide only the numeric part.

Previously resolved entries follow.
COMPOUND: C=CCNC(=O)NCCCCC(NS(=O)(=O)c1ccc2oc3ccccc3c2c1)C(=O)O (centres unmarked)
IC50 [nM]: 1100
//
COMPOUND: CCC(C)CNC(=O)CCC(NS(=O)(=O)c1ccc2oc3ccccc3c2c1)C(=O)O (centres unmarked)
IC50 [nM]: 900
//
COMPOUND: CN(C)CCNC(=O)CCC(NS(=O)(=O)c1ccc2oc3ccccc3c2c1)C(=O)O (centres unmarked)
IC50 [nM]: 9800

Ask: # query: IC50 | item O=C(CCC(NS(=O)(=O)c1ccc2oc3ccccc3c2c1)C(=O)O)NC1CC1 (centres unmarked) | system: gelatinase A catalytic domain (MMP02)
Result: 200

Ask: # query: IC50 | item COc1ccc(S(=O)(=O)NCCCCC(NS(=O)(=O)c2ccc3oc4ccccc4c3c2)C(=O)O)cc1 (centres unmarked) [Example D2] | system: gelatinase A catalytic domain (MMP02)
Result: 1800

Ask: # query: IC50 | item O=C(O)C(CCCCNC(=O)C1(c2ccccc2)CC1)NS(=O)(=O)c1ccc2oc3ccccc3c2c1 (centres unmarked) | system: gelatinase A catalytic domain (MMP02)
Result: 600

Ask: # query: IC50 | item O=C(CCCc1cccs1)NCCCCC(NS(=O)(=O)c1ccc2oc3ccccc3c2c1)C(=O)O (centres unmarked) | system: gelatinase A catalytic domain (MMP02)
Result: 1100

Ask: # query: IC50 | item O=C(O)C(CCCCNS(=O)(=O)c1ccc(F)cc1)NS(=O)(=O)c1ccc2oc3ccccc3c2c1 (centres unmarked) [Example D1] | system: gelatinase A catalytic domain (MMP02)
Result: 1700

====

- TARGET ENTITY: gelatinase A catalytic domain (MMP02)
- ASSAY DETAILS: Thiopeptolide assay, gelatinase A catalytic domain (GCD, MMP02)
- Format: biochemical
- MEASUREMENT SETUP: Tables 2, 3, 5, 7; read-out: IC50 MMP-2CD
pIC50: −log10 of the molar value.
Decision: pIC50 compared against 6; not below it gives label 1, below it gives label 0.

Please review the following examples before continuing.
MOLECULE: COc1ccccc1CNC(=O)CCC(NS(=O)(=O)c1ccc2oc3ccccc3c2c1)C(=O)O (stereo not shown)
GROUP: label 1

MOLECULE: O=C(O)C(CCCCNC(=S)NC(c1ccccc1)c1ccccc1)NS(=O)(=O)c1ccc2oc3ccccc3c2c1 (stereo not shown)
GROUP: label 0

MOLECULE: O=C(CCCc1ccc([N+](=O)[O-])cc1)NCCCCC(NS(=O)(=O)c1ccc2oc3ccccc3c2c1)C(=O)O (stereo not shown)
GROUP: label 0

MOLECULE: O=C(CCC(NS(=O)(=O)c1ccc2oc3ccccc3c2c1)C(=O)O)NCc1ccccc1 (stereo not shown)
GROUP: label 0

MOLECULE: O=C(CCC(NS(=O)(=O)c1ccc2oc3ccccc3c2c1)C(=O)O)NCc1cccc2ccccc12 (stereo not shown)
GROUP: label 1

Ask: For this molecule, is measured pIC50 6 or higher? O=C(O)C(CCCCNS(=O)(=O)C=Cc1ccccc1)NS(=O)(=O)c1ccc2oc3ccccc3c2c1 (stereo not shown)
Result: label 0

Ask: For this molecule, is measured pIC50 6 or higher? CC(O)CNC(=O)CCC(NS(=O)(=O)c1ccc2oc3ccccc3c2c1)C(=O)O (stereo not shown)
Result: label 0

Ask: For this molecule, is measured pIC50 6 or higher? O=C(CCC(NS(=O)(=O)c1ccc2oc3ccccc3c2c1)C(=O)O)NCc1cccs1 (stereo not shown)
Result: label 1

Ask: For this molecule, is measured pIC50 6 or higher? CCCc1ccc(NC(=O)CCC(NS(=O)(=O)c2ccc3oc4ccccc4c3c2)C(=O)O)cc1 (stereo not shown)
Result: label 1

Ask: For this molecule, is measured pIC50 6 or higher? O=C(O)C(CCCCNC(=S)Nc1cccnc1)NS(=O)(=O)c1ccc2oc3ccccc3c2c1 (stereo not shown)
Result: label 0

Ask: For this molecule, is measured pIC50 6 or higher? COc1ccc(NC(=O)NCCCCC(NS(=O)(=O)c2ccc3oc4ccccc4c3c2)C(=O)O)cc1 (stereo not shown)
Result: label 0

Ask: For this molecule, is measured pIC50 6 or higher? CC(C)CC(C)NC(=O)CCC(NS(=O)(=O)c1ccc2oc3ccccc3c2c1)C(=O)O (stereo not shown)
Result: label 1

Ask: For this molecule, is measured pIC50 6 or higher? O=C(NCCCCC(NS(=O)(=O)c1ccc2oc3ccccc3c2c1)C(=O)O)Nc1ccccc1 (stereo not shown)
Result: label 1

Ask: For this molecule, is measured pIC50 6 or higher? COc1ccccc1CCC(=O)NCCCCC(NS(=O)(=O)c1ccc2oc3ccccc3c2c1)C(=O)O (stereo not shown)
Result: label 0

====

- TARGET ENTITY: MMP07 (Homo sapiens, UniProt P09237)
- Construct: made in house; host or cells: Escherichia coli
- Sequence (P09237 95-267): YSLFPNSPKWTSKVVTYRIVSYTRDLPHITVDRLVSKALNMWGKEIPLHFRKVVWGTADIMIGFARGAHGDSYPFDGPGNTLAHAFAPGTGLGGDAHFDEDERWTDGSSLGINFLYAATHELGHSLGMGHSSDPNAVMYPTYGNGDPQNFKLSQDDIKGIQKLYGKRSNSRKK
- ASSAY DETAILS: Thiopeptolide assay, MMP07
- Type: biochemical
- MEASUREMENT SETUP: Table 1; read-out: IC50 MMP07
# Lookup of reported IC50 keyed by entry
Note: unit µM is implicit; provide only the numeric part.

Previously resolved entries follow.
COMPOUND: O=C(O)[C@H](CCc1ccccc1)NS(=O)(=O)c1ccc2c(c1)oc1ccccc12
TARGET ENTITY: MMP07 (Homo sapiens, UniProt P09237)
IC50 (µM): 1.2
//
COMPOUND: O=C(O)[C@H](CCc1ccccc1)NS(=O)(=O)c1ccc2sc3ccccc3c2c1
TARGET ENTITY: MMP07 (Homo sapiens, UniProt P09237)
IC50 (µM): 82
//
COMPOUND: O=C(NCCCC[C@H](NS(=O)(=O)c1ccc2oc3ccccc3c2c1)C(=O)O)OCc1ccccc1
TARGET ENTITY: MMP07 (Homo sapiens, UniProt P09237)
IC50 (µM): 3.3

Ask: # query: IC50 | item O=C(O)[C@H](CCc1ccccc1)NS(=O)(=O)c1ccc2c(c1)Cc1ccccc1-2 | system: MMP07 (Homo sapiens, UniProt P09237)
Result: 2.55

Ask: # query: IC50 | item O=C(CC[C@H](NS(=O)(=O)c1ccc2oc3ccccc3c2c1)C(=O)O)NCCc1ccccc1 | system: MMP07 (Homo sapiens, UniProt P09237)
Result: 6.55

Ask: # query: IC50 | item CCCc1ccc(C(=O)CC(NS(=O)(=O)c2ccc3oc4ccccc4c3c2)C(=O)O)cc1 (stereo not drawn) | system: MMP07 (Homo sapiens, UniProt P09237)
Result: 87

====

- TARGET ENTITY: gelatinase A catalytic domain (MMP02)
- ASSAY DETAILS: Thiopeptolide assay, gelatinase A catalytic domain (GCD, MMP02)
- Assay type: biochemical
- MEASUREMENT SETUP: Tables 2, 3, 5, 7; read-out: IC50 MMP-2CD
MEASURED ATTRIBUTE: log10 of IC50 (log10 of the value in nM)
Quick note: numbers are log10 of IC50, with nM as the unit.

Previously resolved entries follow.
COMPOUND: O=C(CCC(NS(=O)(=O)c1ccc2oc3ccccc3c2c1)C(=O)O)Nc1ccc(Cl)cc1 (stereo not drawn)
log10 of IC50: 2.48

COMPOUND: O=C(O)C(CCCCNS(=O)(=O)c1ccc(Br)cc1)NS(=O)(=O)c1ccc2oc3ccccc3c2c1 (stereo not drawn)
log10 of IC50: 3.46

COMPOUND: O=C(CCc1ccc(Cl)cc1)NCCCCC(NS(=O)(=O)c1ccc2oc3ccccc3c2c1)C(=O)O (stereo not drawn)
log10 of IC50: 3.26

In the following, a different compound is considered.
Ask: Requested read-out: log10 of IC50. Entry: CC(C)(Oc1ccc(Cl)cc1)C(=O)NCCCCC(NS(=O)(=O)c1ccc2oc3ccccc3c2c1)C(=O)O (stereo not drawn)
Result: 3.72

====

- TARGET ENTITY: stromelysin-1 catalytic domain (MMP03) (Homo sapiens)
- Construct: SCD (stromelysin-1 catalytic domain); made in house; host or cells: Escherichia coli
- Sequence (P08254 100-272 limits assumed): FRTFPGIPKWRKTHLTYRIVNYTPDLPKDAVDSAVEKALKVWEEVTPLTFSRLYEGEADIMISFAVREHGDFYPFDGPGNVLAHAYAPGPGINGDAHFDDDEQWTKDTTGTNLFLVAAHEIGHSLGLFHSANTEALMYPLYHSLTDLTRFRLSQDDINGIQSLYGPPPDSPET
- ASSAY DETAILS: Thiopeptolide assay, stromelysin-1 catalytic domain (SCD, MMP03)
- Format: biochemical
- MEASUREMENT SETUP: Tables 2, 3, 5, 7; read-out: IC50 MMP 3CD
MEASURED ATTRIBUTE: IC50 (µM)
Note: unit µM is implicit; provide only the numeric part.

COMPOUND: O=C(CCC(NS(=O)(=O)c1ccc2oc3ccccc3c2c1)C(=O)O)Nc1ccc(Cl)cc1 (stereo not shown)
UNIT SPEC: µM
IC50: 0.7

COMPOUND: O=C(CCC(NS(=O)(=O)c1ccc2oc3ccccc3c2c1)C(=O)O)NC1CC1 (stereo not shown)
UNIT SPEC: µM
IC50: 0.2

COMPOUND: O=C(CCC(NS(=O)(=O)c1ccc2oc3ccccc3c2c1)C(=O)O)NCc1cccc2ccccc12 (stereo not shown)
UNIT SPEC: µM
IC50: 1.1

Ask: # query: IC50 | item O=C(NCCCCC(NS(=O)(=O)c1ccc2oc3ccccc3c2c1)C(=O)O)Nc1ccccc1 (stereo not shown) | system: stromelysin-1 catalytic domain (MMP03) (Homo sapiens)
Result: 2.4
